- System: LU99A
- Procedure Text: relative viability (nuclei count vs DMSO), 5 days (fraction); higher = more cells survive
- Run Parameters: first compound 0.02 µM
Measured relative viability of individual entries

Compound: CC(=O)O[C@@]12CO[C@@H]1C[C@H](O)[C@@]1(C)C(=O)[C@H](O)C3=C(C)[C@@H](OC(=O)[C@H](O)[C@@H](NC(=O)OC(C)(C)C)c4ccccc4)C[C@@](O)([C@@H](OC(=O)c4ccccc4)[C@H]21)C3(C)C [Docetaxel] + CCNC(=O)c1noc(-c2cc(C(C)C)c(O)cc2O)c1-c1ccc(CN2CCOCC2)cc1 [Luminespib] (partner 0.01 µM)
relative viability: 0.2
//
Compound: CC(=O)O[C@@]12CO[C@@H]1C[C@H](O)[C@@]1(C)C(=O)[C@H](O)C3=C(C)[C@@H](OC(=O)[C@H](O)[C@@H](NC(=O)OC(C)(C)C)c4ccccc4)C[C@@](O)([C@@H](OC(=O)c4ccccc4)[C@H]21)C3(C)C [Docetaxel] + N=C(N)NC(=N)NCCc1ccccc1 [Phenformin] (partner 250 µM)
relative viability: 0.242

----------
- Tested on: COR-L23
- Procedure Text: relative viability (nuclei count vs DMSO), 5 days (fraction); higher = more cells survive
- Run Parameters: first compound 1.265 µM

Compound: Cc1sc2c(c1C)C(c1ccc(Cl)cc1)=N[C@@H](CC(=O)OC(C)(C)C)c1nnc(C)n1-2 [JQ1] + COc1cccc2cc(-c3nc([C@H]4CC[C@H](C(=O)O)CC4)n4ncnc(N)c34)[nH]c12 [OSI-027] (partner 0.5 µM)
Tgt: COR-L23
relative viability: 0.293
--
Compound: Cc1sc2c(c1C)C(c1ccc(Cl)cc1)=N[C@@H](CC(=O)OC(C)(C)C)c1nnc(C)n1-2 [JQ1] + CC1(C)CCC(c2ccc(Cl)cc2)=C(CN2CCN(c3ccc(C(=O)NS(=O)(=O)c4ccc(N[C@H](CCN5CCOCC5)CSc5ccccc5)c(S(=O)(=O)C(F)(F)F)c4)cc3)CC2)C1 [Navitoclax] (partner 0.5 µM)
Tgt: COR-L23
relative viability: 0.357
--
Compound: Cc1sc2c(c1C)C(c1ccc(Cl)cc1)=N[C@@H](CC(=O)OC(C)(C)C)c1nnc(C)n1-2 [JQ1] + C[C@@H](Oc1cc(-c2cnn(C3CCNCC3)c2)cnc1N)c1c(Cl)ccc(F)c1Cl [Crizotinib] (partner 1 µM)
Tgt: COR-L23
relative viability: 0.248
--
Compound: Cc1sc2c(c1C)C(c1ccc(Cl)cc1)=N[C@@H](CC(=O)OC(C)(C)C)c1nnc(C)n1-2 [JQ1] + CS(=O)(=O)CCNCc1ccc(-c2ccc3ncnc(Nc4ccc(OCc5cccc(F)c5)c(Cl)c4)c3c2)o1 [Lapatinib] (partner 2 µM)
Tgt: COR-L23
relative viability: 0.773
--
Compound: Cc1sc2c(c1C)C(c1ccc(Cl)cc1)=N[C@@H](CC(=O)OC(C)(C)C)c1nnc(C)n1-2 [JQ1] + Nc1nc2[nH]cc(CCc3ccc(C(=O)N[C@@H](CCC(=O)O)C(=O)O)cc3)c2c(=O)[nH]1 [Pemetrexed] (partner 0.2 µM)
Tgt: COR-L23
relative viability: 0.159
--
Compound: Cc1sc2c(c1C)C(c1ccc(Cl)cc1)=N[C@@H](CC(=O)OC(C)(C)C)c1nnc(C)n1-2 [JQ1] + CCNC(=O)c1noc(-c2cc(C(C)C)c(O)cc2O)c1-c1ccc(CN2CCOCC2)cc1 [Luminespib] (partner 0.01 µM)
Tgt: COR-L23
relative viability: 0.207
--
Compound: Cc1sc2c(c1C)C(c1ccc(Cl)cc1)=N[C@@H](CC(=O)OC(C)(C)C)c1nnc(C)n1-2 [JQ1] + Cc1nc(NC(=O)N2CCC[C@H]2C(N)=O)sc1-c1ccnc(C(C)(C)C(F)(F)F)c1 [Alpelisib] (partner 2 µM)
Tgt: COR-L23
relative viability: 0.36
--
Compound: Cc1sc2c(c1C)C(c1ccc(Cl)cc1)=N[C@@H](CC(=O)OC(C)(C)C)c1nnc(C)n1-2 [JQ1] + COc1cc2c(Oc3ccc(NC(=O)C4(C(=O)Nc5ccc(F)cc5)CC4)cc3F)ccnc2cc1OCCCN1CCOCC1 [Foretinib] (partner 0.25 µM)
Tgt: COR-L23
relative viability: 0.663

----------
- System: COR-L 105
- Procedure Text: relative viability (nuclei count vs DMSO), 5 days (fraction); higher = more cells survive
- Run Parameters: first compound 0.4 µM
Here the recorded relative viability is given for each entry.

Molecule: Cc1sc2c(c1C)C(c1ccc(Cl)cc1)=N[C@@H](CC(=O)OC(C)(C)C)c1nnc(C)n1-2 [JQ1] + Cc1nc(NC(=O)N2CCC[C@H]2C(N)=O)sc1-c1ccnc(C(C)(C)C(F)(F)F)c1 [Alpelisib] (partner 2 µM)
relative viability: 0.421
//
Molecule: Cc1sc2c(c1C)C(c1ccc(Cl)cc1)=N[C@@H](CC(=O)OC(C)(C)C)c1nnc(C)n1-2 [JQ1] + O=C(c1cc(Cc2n[nH]c(=O)c3ccccc23)ccc1F)N1CCN(C(=O)C2CC2)CC1 [Olaparib] (partner 8 µM)
relative viability: 0.385
//
Molecule: Cc1sc2c(c1C)C(c1ccc(Cl)cc1)=N[C@@H](CC(=O)OC(C)(C)C)c1nnc(C)n1-2 [JQ1] + CC(=O)Nc1cccc(-n2c(=O)n(C3CC3)c(=O)c3c(Nc4ccc(I)cc4F)n(C)c(=O)c(C)c32)c1 [Trametinib] (partner 0.02 µM)
relative viability: 0.377
//
Molecule: Cc1sc2c(c1C)C(c1ccc(Cl)cc1)=N[C@@H](CC(=O)OC(C)(C)C)c1nnc(C)n1-2 [JQ1] + CCNC(=O)c1noc(-c2cc(C(C)C)c(O)cc2O)c1-c1ccc(CN2CCOCC2)cc1 [Luminespib] (partner 0.01 µM)
relative viability: 0.369

----------
- System: IA-LM
- Procedure Text: relative viability (nuclei count vs DMSO), 5 days (fraction); higher = more cells survive
- Run Parameters: first compound 0.05 µM
Value Type: relative viability

Compound: Nc1ccn([C@@H]2O[C@H](CO)[C@@H](O)[C@@H]2O)c(=O)n1 [Cytarabine] + COc1cc2c(Oc3ccc(NC(=O)C4(C(=O)Nc5ccc(F)cc5)CC4)cc3F)ccnc2cc1OCCCN1CCOCC1 [Foretinib] (partner 0.25 µM)
Tgt: IA-LM
Value Type: relative viability
Result: 0.916
--
Compound: Nc1ccn([C@@H]2O[C@H](CO)[C@@H](O)[C@@H]2O)c(=O)n1 [Cytarabine] + C[C@]1(O)C[C@@H](c2nc(-c3ccc4ccc(-c5ccccc5)nc4c3)c3c(N)nccn32)C1 [Linsitinib] (partner 1 µM)
Tgt: IA-LM
Value Type: relative viability
Result: 0.357
--
Compound: COc1cc2nccc(Oc3ccc(NC(=O)Nc4cc(C)on4)c(Cl)c3)c2cc1OC [Tivozanib] + CC1(C)CCC(c2ccc(Cl)cc2)=C(CN2CCN(c3ccc(C(=O)NS(=O)(=O)c4ccc(N[C@H](CCN5CCOCC5)CSc5ccccc5)c(S(=O)(=O)C(F)(F)F)c4)cc3)CC2)C1 [Navitoclax] (partner 0.5 µM)
Tgt: IA-LM
Value Type: relative viability
Result: 0.737
--
Compound: Nc1ccn([C@@H]2O[C@H](CO)[C@@H](O)[C@@H]2O)c(=O)n1 [Cytarabine] + CS(=O)(=O)CCNCc1ccc(-c2ccc3ncnc(Nc4ccc(OCc5cccc(F)c5)c(Cl)c4)c3c2)o1 [Lapatinib] (partner 2 µM)
Tgt: IA-LM
Value Type: relative viability
Result: 0.588

----------
- Tested on: EMC-BAC-2
- Procedure Text: relative viability (nuclei count vs DMSO), 5 days (fraction); higher = more cells survive
- Run Parameters: first compound 158.11 µM

Compound: O=C(O)CCCCC(CCSCc1ccccc1)SCc1ccccc1 (stereo not given) [CPI-613] + Nc1ncn([C@H]2C[C@H](O)[C@@H](CO)O2)c(=O)n1 [Decitabine] (partner 2 µM)
relative viability: 0.74
--
Compound: O=C(O)CCCCC(CCSCc1ccccc1)SCc1ccccc1 (stereo not given) [CPI-613] + Cc1nc(Nc2ncc(C(=O)Nc3c(C)cccc3Cl)s2)cc(N2CCN(CCO)CC2)n1 [Dasatinib] (partner 0.075 µM)
relative viability: 0.206
--
Compound: O=C(O)CCCCC(CCSCc1ccccc1)SCc1ccccc1 (stereo not given) [CPI-613] + CC(=O)c1c(C)c2cnc(Nc3ccc(N4CCNCC4)cn3)nc2n(C2CCCC2)c1=O [Palbociclib] (partner 0.5 µM)
relative viability: 0.267
--
Compound: O=C(O)CCCCC(CCSCc1ccccc1)SCc1ccccc1 (stereo not given) [CPI-613] + C[C@]1(O)C[C@@H](c2nc(-c3ccc4ccc(-c5ccccc5)nc4c3)c3c(N)nccn32)C1 [Linsitinib] (partner 1 µM)
relative viability: 0.701
--
Compound: O=C(O)CCCCC(CCSCc1ccccc1)SCc1ccccc1 (stereo not given) [CPI-613] + CS(=O)(=O)N1CCN(Cc2cc3nc(-c4cccc5[nH]ncc45)nc(N4CCOCC4)c3s2)CC1 [Pictilisib] (partner 1 µM)
relative viability: 0.556
